Parameter log10 of IC50: see the listing below.
Target: catalytic domain of human Bub1 (amino acids 704-1085) (Homo sapiens, UniProt O43683)
Construct: catalytic domain of human Bub1 (amino acids 704-1085); His6 (N); made in house; host or cells: Hi5 insect cells
Sequence (O43683 704-1085): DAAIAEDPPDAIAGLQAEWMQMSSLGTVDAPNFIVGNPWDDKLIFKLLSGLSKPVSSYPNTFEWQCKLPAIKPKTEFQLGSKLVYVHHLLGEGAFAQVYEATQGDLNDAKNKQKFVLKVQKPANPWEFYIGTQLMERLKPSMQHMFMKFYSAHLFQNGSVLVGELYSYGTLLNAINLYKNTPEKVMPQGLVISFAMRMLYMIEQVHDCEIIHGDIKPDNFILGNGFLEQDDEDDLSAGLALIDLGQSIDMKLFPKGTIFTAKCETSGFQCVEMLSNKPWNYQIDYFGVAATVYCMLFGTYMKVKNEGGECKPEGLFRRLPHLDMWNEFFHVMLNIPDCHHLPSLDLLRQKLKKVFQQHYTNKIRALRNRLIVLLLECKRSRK
Assay: Bub1 kinase assay (TR-FRET)
Type: biochemical
Conditions: TR-FRET; ATP 10 μM, peptide substrate 1 μM; 60 min at 22° C.; average or median if tested more than once; read-out: Inhibition of Bub1 kinase IC50
Procedure: […] In a typical assay 11 different concentrations of each compound (0.1 nM, 0.33 nM, 1.1 nM, 3.8 nM, 13 nM, 44 nM, 0.15 μM, 0.51 μM, 1.7 μM, 5.9 μM and 20 μM) were tested in duplicate within the same microtiter plate. […] Subsequently, the amount of product was evaluated by measurement of the resonance energy transfer from the Eu-chelate-antibody complex recognizing the Phosphoserine residue to the streptavidin-XL665 bound to the biotin moiety of the peptide. […]
assayReadout: log10 of IC50 (log10 of the value in nM)

moleculeSmiles: CC(C)(C)OC(=O)N1CC(=O)c2c([nH]c(-c3ccncc3OCC(F)F)c2Nc2ccccc2)C1
val: 1.26
//
moleculeSmiles: COc1ccc(C(=O)Nc2cc(-c3c(Nc4ccccc4)c4c(n3C)CN(S(=O)(=O)N(C)C)CC4=O)ccn2)cc1F
val: 1.86
//
moleculeSmiles: O=C1CSCc2[nH]c(-c3ccncc3C(F)(F)F)c(Nc3ccccc3)c21
val: 3.87
//
moleculeSmiles: Cc1ccc(F)cc1C(=O)Nc1cc(-c2[nH]c3c(c2Nc2ccccc2)C(=O)CN(C(=O)OC(C)(C)C)C3)ccn1
val: 1.76
//
moleculeSmiles: CC(=O)Nc1cc(-c2[nH]c3c(c2Nc2ccccc2)C(=O)CN(C(=O)c2ccccn2)C3)ccn1
val: 1.80
